system: UACC-62 melanoma; assay: NCI tumour cell line growth inhibition, 48 h
measured-parameter: GI50

COc1ccc2c(c1)OC(N(C(C)=O)C(C)=O)=C(C#N)C2c1ccc(F)cc1 (stereo unspecified) ... 0.632 µM

Field: GI50. Fill in for each record below.
1. CCOP(=O)(OCC)C(NC(c1ccccc1)c1ccccc1)c1cccc2ccccc12 (stereo unspecified)
2. C[C@H]1[C@H](C)CC[C@]2(C(=O)O)CC[C@]3(C)C(=CC[C@@H]4[C@@]5(C)C/C(=C/c6cccnc6)[C@H](O)C(C)(C)[C@@H]5CC[C@]43C)[C@H]12
3. Clc1nc(Cl)c2c(ncn2C/C=C\Cn2cnc3c(Cl)nc(Cl)nc32)n1
4. CC(=O)[O-].CC(=O)[O-].[NH2-].[Pt+2].c1ccc2cnccc2c1
5. CC(CNC(Cc1ccccc1)c1ccccc1)NC(Cc1ccccc1)c1ccccc1 (stereo unspecified)

[out]
["2.58 µM", "11.7 µM", "1.83 µM", "30.3 µM", "1.8 µM"]

Field: GI50. Fill in for each record below.
1. CC(=O)Nc1ccc2c(c1)oc(=O)c1cc(NC(C)=O)ccc12
2. Fc1cccc(COc2ccc(Nc3ncnc4cc(-c5ccc[nH]5)sc34)cc2Cl)c1
3. COc1cc(Nc2nc(N[C@H]3CCCC[C@@H]3N)nc3cc[nH]c(=O)c23)cc(OC)c1
4. CCCCN(Cc1ccc(F)cc1)c1ccc(CO)c(Cl)c1
5. COC(=O)c1cc(C#Cc2cc(OC)ccc2OC)ccc1OC

[out]
1. 63.4 µM
2. 5.77 µM
3. 0.844 µM
4. 0.903 µM
5. 29.3 µM
